Test: Cmax in Sprague-Dawley rat at 10 mg/kg, iv measured up to 24 hrs by LC/MS/MS analysis
Format: ADME, organism-based
Set-up: dose 10 mg/kg, time < 24 hrs, route iv
Assay Conditions: in vivo
Readout Type: Cmax (ng/mL)

{"columns": ["Chemical Structure", "Result Number"],
 "data": [
  ["CCNC(=O)c1noc(-c2cc(-c3ccc(C)cc3)c(O)cc2O)c1-c1ccc(CN2CCOCC2)cc1", 3440]
]}

###

Here, each record is paired with measured fractional inhibitory concentration index (FICI) data.
Test system: Candida albicans
Test: Synergetic antifungal activity against fluconazole-resistant Candida albicans 632 assessed as fractional inhibitory concentration index in presence of fluconazole by checker board microdilution assay
Type: functional
Readout Type: fractional inhibitory concentration index (FICI)

{"columns": ["Chemical Structure", "Assay Target", "Result Number"],
 "data": [
  ["CNC(=O)c1noc(-c2cc(-c3ccc(C)cc3)c(O)cc2O)c1-c1ccc(CN2CCOCC2)cc1", "Candida albicans", 0.016],
  ["CNC(=O)c1noc(-c2cc(-c3ccc(C)cc3)c(O)cc2O)c1-c1ccc(CN2CCCCC2)cc1", "Candida albicans", 0.062],
  ["CCNC(=O)c1noc(-c2cc(-c3ccc(C)cc3)c(O)cc2O)c1-c1ccc(CN2CCOCC2)cc1", "Candida albicans", 0.033],
  ["CCNC(=O)c1noc(-c2cc(-c3ccc(C)cc3)c(O)cc2O)c1-c1ccc(CN2CCCCC2)cc1", "Candida albicans", 0.039]
]}
